# key: entry, value: kon
# target-system: T1, recombinant human PD-1 Fc chimera (human, UniProt Q15116 25-167)
# T1 construct: Bought protein (R&D 1086-PD in the HTRF assay); also called human PD-1-hu Fc; huPD-1Fc; not shown: human Fc
# T1 sequence (Q15116 25-167 limits assumed, change not shown): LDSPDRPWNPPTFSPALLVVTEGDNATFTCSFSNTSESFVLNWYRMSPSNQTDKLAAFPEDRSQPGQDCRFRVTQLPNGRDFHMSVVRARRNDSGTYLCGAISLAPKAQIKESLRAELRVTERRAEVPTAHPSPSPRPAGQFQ
# assay-explanation: SPR Biacore T200, single cycle kinetics, human PD-1-hu Fc amine coupled to CM5, 1:1 model
# Experimental: Binding kinetics of certain humabodies binding to human PD-1-hu Fc were measured by surface plasmon resonance (SPR) technology using Biacore T200 instrument (GE Healthcare). Recombinant human PD-1-hu Fc was immobilized by standard amine coupling to CM5 sensors chip (GE Healthcare) using 0.1 mg/ml solution of antigen in 10 mM sodium acetate at pH 5.5. For the reference flow cell, a blank immobilisation was carried out. […]
Your answer should be a plain number; it is taken to be in M⁻¹ s⁻¹.

The examples below pair each entry with its known result.
1) 1.92b-4GS-1.39a (other, Biparatopic VH-linker-VH; built from its parts here because it is not clear whether 1112 is the protein or the nucleic acid) EVQLVESGGGLVKPGGSLRLSCAASGFTFSDESMTWMRQAPGKGLEWVSYISSGGGVKFYADSVKGRFTISRDNAKNSLYLQMNSLRAEDTAVYYCAREAPLRLGESPHDAFDISGQGTMVTVSSGGGGSGGGGSGGGGSGGGGSEVQLVESGGGLVQPGRSLRLSCAASGFTFDDYALHWVRQAPGKDLEWVSGISWNGGSYGYADSVKGRFTISRDNAKNSLYLQMNSLRAEDTALYYCVREKGPGLTGSTADYYGLDAWGQGTMVTVSS ... 510000
2) 1.1b-2GS-1.1a (other, Biparatopic VH-linker-VH; His tag implied by the assays; not in the chain) QVQLVESGGGLVKPGGSLRLSCAASGFTFSDYTMTWMRQAPGKGLEWVSYISTGGTIKYYTDSVKGRFTISRDNAKNSLYLQMNSLRADDTAVYYCAREAPLRLGESPHDAFDIWGQGTMVTVSSGGGGSGGGGSEVQLLESGGGSVQPGRSLRLSCAASGFTFDDHAMHWVRQAPGKGLEWVSGISWNSGSMGYADSVKDRFTISRDNAKSSLYLQMNSLRAEDTALYYCVREKGPGLTGSTADYYGLDVWGQGTMVTVSS ... 313000

With those in mind, consider the next binder.
kon for 1.1a (VHH, also called Humabody 1.1a; VH single domain antibody 1.1a) VHH: EVQLLESGGGSVQPGRSLRLSCAASGFTFDDHAMHWVRQAPGKGLEWVSGISWNSGSMGYADSVKDRFTISRDNAKSSLYLQMNSLRAEDTALYYCVREKGPGLTGSTADYYGLDVWGQGTMVTVSS ?
109000

Reference for the values: patent US20220306744A1
